target: T1, human HGF (R&D material and Peprotech material, values averaged over both) (human, UniProt P14210 32-728); assay: SPR (Biacore T100), purified Nanobody, biphasic dissociation, kd1 fitted 125-185 s after injection start
T1 construct: As printed they differ in one letter
T1 sequence (P14210 32-728 limits assumed): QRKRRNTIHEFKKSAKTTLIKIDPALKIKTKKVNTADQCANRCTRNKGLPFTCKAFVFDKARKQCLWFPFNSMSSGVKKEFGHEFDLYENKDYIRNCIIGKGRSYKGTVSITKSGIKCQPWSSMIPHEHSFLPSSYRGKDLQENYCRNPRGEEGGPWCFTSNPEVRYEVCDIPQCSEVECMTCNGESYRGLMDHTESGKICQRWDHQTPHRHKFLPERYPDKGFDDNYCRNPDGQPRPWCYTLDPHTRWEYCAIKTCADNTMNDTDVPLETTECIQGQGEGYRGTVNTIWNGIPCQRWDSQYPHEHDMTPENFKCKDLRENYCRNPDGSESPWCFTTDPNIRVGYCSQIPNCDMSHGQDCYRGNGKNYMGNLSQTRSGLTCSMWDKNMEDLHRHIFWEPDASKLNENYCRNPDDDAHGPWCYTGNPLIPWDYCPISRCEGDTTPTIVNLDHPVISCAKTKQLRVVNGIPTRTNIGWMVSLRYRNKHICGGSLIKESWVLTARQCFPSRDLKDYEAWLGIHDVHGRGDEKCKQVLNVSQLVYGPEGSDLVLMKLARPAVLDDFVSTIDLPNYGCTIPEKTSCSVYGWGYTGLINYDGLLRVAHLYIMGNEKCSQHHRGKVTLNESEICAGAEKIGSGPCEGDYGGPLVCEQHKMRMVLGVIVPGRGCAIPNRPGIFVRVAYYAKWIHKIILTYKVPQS
Observed Property: koff (s⁻¹)
Numbers only, in s⁻¹.

1) 6H6 (VHH, anti-HGF Nanobody clone; not shown: c-myc and His6 tags) VHH: EVQLMESGGGLVQAGGSLRLSCAASGRTFSSYAMGWFRQAPGKERENVAAISSSGGYTYYPDSVKGRFTISRDTAKNTVYLQMNSLKPDDTAVYYCAGTQPNFGWQLLLLQTEYDYWGQGTQVTVSS	0.00313
2) 6F6 (VHH, anti-HGF Nanobody clone; not shown: c-myc and His6 tags) VHH: EVQLVESGGGLVQPGGSLRLSCAASGSILGINAMGWYRQAPGKQRELVAVINSGGSTNYADSVKGRFTISRDNAKNTVYLQMNSLKPEDTAVYYCNADEWGDYPGQVYDYWGQGTQVTVSS	0.00577
3) 5C7 (VHH, anti-HGF Nanobody clone; not shown: c-myc and His6 tags) VHH: EVQLVESGGGLVQAGDSLRLSCAASGGTFGSSHMAWFRQVPEKEREFVAAISRSGGTTYYADSVKGRCTISRDNAKNTVYLQMNSLKPEDTAVYYCAAARFWGSTSTRMDDYQYWGQGTQVTVSS	0.00605

Ask | # query: koff of entry 9G6 (VHH, anti-HGF Nanobody clone; not shown: c-myc and His6 tags) VHH: EVQLVESGGGLVQAGGSLRLSCAASGRTLSDYTMGWFRQAPGKEREFVARINTGGPITSYSDSVKGRFTISRDNAKNTVYLQMNSLKPEDTAVYNCAARLPTKMSPRDYSSYAYRGQGTQVTVSS
Reply | 0.00237
